# Species on record: Mus musculus
# test.description: Stimulation of prostanoid receptor-mediated cAMP-[14C] production in Charles River CD-1 mouse ovary at 100 ug/ml preincubated with adenine-8-[14C] for 1 hr followed by compound addition measured after 30 mins in presence of theophylline relative to control
# Format: tissue-based
# setup.conditions: Female gonad
measurement.name: fold change (FC)

> print(dat)
                         compound.structure  reading
1  CCCCC[C@H](O)CCCN(CCCCCCC(=O)O)S(C)(=O)=O       68

(1) CCCCC[C@@H](O)CCCN(CCCCCCC(=O)O)S(C)(=O)=O
(2) CCCCCCCCCN(CCCCCCC(=O)O)S(C)(=O)=O
Please choose the item with the lower fold change (FC) value from this pair: 1 and 2 Your choice should be expressed through its label.
2
(2: 15, 1: 45)
